Cited source: ChEMBL document CHEMBL2010800

tested.on: Androgen receptor (Homo sapiens, UniProt P10275)
Sequence (P10275 whole entry): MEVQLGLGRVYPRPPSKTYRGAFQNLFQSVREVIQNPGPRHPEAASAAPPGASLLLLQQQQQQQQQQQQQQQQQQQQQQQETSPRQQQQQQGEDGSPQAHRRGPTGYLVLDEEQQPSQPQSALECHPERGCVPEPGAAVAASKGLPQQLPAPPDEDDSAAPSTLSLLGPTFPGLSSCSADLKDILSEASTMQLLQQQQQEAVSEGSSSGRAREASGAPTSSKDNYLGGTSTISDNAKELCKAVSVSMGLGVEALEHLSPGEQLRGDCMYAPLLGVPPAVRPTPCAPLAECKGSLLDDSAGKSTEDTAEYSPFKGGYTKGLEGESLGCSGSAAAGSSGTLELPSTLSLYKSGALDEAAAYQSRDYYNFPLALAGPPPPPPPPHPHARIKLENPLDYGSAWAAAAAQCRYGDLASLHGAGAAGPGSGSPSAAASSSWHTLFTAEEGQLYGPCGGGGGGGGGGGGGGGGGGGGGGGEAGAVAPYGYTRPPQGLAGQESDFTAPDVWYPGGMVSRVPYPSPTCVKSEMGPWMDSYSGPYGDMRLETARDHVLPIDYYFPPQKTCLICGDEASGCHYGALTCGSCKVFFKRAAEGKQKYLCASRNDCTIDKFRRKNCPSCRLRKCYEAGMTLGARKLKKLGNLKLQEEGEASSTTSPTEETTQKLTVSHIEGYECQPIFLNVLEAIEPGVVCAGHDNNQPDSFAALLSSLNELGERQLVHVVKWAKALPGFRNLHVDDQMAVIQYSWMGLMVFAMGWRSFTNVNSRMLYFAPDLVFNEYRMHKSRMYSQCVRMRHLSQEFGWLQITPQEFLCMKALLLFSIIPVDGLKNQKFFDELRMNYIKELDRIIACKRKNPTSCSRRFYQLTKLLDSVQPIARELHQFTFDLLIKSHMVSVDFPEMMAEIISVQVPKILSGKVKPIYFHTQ
test.details: Antagonist activity at androgen receptor in human LNCAP cells assessed as decrease in transmembrane protease serine 2 mRNA level after 20 hrs by real time RT-PCR analysis
pIC50: −log10 of the molar value.
readout.name: pIC50

COc1ccccc1C(=O)/C=C/c1ccccc1[N+](=O)[O-]    6.12

====

tested.on: Androgen receptor (Homo sapiens) (UniProt P10275)
Sequence (whole entry): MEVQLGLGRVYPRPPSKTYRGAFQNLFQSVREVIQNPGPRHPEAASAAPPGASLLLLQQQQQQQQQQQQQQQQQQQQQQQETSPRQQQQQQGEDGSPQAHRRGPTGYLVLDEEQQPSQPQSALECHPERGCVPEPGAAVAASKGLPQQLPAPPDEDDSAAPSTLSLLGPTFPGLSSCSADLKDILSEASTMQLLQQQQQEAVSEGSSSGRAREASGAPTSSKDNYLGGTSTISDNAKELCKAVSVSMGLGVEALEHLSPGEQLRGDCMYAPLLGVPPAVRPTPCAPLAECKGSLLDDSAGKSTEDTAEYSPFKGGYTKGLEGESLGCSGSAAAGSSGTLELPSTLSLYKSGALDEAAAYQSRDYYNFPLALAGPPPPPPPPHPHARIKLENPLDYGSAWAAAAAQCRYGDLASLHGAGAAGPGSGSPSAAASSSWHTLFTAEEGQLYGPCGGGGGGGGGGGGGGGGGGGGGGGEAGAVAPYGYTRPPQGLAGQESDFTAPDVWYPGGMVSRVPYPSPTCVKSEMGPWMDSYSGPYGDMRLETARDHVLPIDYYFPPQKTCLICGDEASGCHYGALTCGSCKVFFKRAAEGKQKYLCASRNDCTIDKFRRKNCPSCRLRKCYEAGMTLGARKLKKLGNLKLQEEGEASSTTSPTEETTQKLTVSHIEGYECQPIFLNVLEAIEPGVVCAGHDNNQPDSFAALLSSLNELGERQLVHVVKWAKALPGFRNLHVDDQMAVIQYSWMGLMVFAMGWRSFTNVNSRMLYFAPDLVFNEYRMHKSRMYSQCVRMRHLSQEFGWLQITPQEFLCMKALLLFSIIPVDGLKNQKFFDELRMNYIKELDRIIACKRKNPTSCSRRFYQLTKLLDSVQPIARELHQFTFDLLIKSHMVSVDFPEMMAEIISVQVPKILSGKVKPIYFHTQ
test.details: Antagonist activity at androgen receptor in human LNCAP cells assessed as decrease in prostate specific antigen mRNA level at 2.5 uM after 20 hrs by real time RT-PCR analysis
Assay type: functional, cell-based
So basically: inhibition at 90% or higher? That is class 1. Lower than 90%? That is class 0.

COc1ccc(C(=O)/C=C/c2ccc([N+](=O)[O-])cc2)c(OC)c1OC    class 0
COc1ccc(C(=O)/C=C/c2cccc([N+](=O)[O-])c2)c(OC)c1OC    class 0
COc1ccccc1C(=O)/C=C/c1ccccc1C(F)(F)F    class 1
COc1ccc(C(=O)/C=C/c2cccc(C(F)(F)F)c2)c(OC)c1OC    class 0
COc1cccc(OC)c1C(=O)/C=C/c1ccccc1C(F)(F)F    class 0
COc1ccccc1C(=O)/C=C/c1ccccc1    class 0
